PROTOCOL: Example 1: multiple-dose randomized 3-way crossover PK study of two IV tramadol regimens vs 100 mg oral q6h
CONDITION SUMMARY: human, plasma, iv, 50 mg, plasma concentration, Mean, 50 mg IV Dose (h 0, 2, 4, then q4h to h 44); Time 4.25 hr
Structures can show the parent of a compound that is named as a salt.
READOUT LABEL: concentration at 4.25 h (ng/mL)
The response must be a number in ng/mL with no trailing unit.

concentration at 4.25 h reported for this molecule COc1cccc([C@]2(O)CCCC[C@H]2CN(C)C)c1 (racemic) [Tramadol, hydrochloride] : 662

---

PROTOCOL: Example 1: multiple-dose randomized 3-way crossover PK study of two IV tramadol regimens vs 100 mg oral q6h
CONDITION SUMMARY: human, plasma, po, 100 mg, AUC0-48, 100 mg oral q6h to h 42, mean
Structures can show the parent of a compound that is named as a salt.
READOUT LABEL: AUC(0-t)
Could you write the number and then its unit?

Documented AUC(0-t) of COc1cccc([C@]2(O)CCCC[C@H]2CN(C)C)c1 (racemic) [Tramadol, hydrochloride] : 19100 ng·h/mL
